Recorded T/C for the following compounds
# System: P388 leukemia ip, CD2F1 mice, survival T/C
# PROCEDURE_DETAILS: NCI In Vivo Anticancer Drug Screen. Data for tumor model P388 Leukemia (intraperitoneal) in CD2F1 (CDF1) mice
# SETTINGS: endpoint: median survival time; dose: 100.0 mg/kg/injection; schedule: Q01DX005 (ip); vehicle: saline with Tween-80; higher = longer survival
Toxic doses and inconclusive results are not listed.

>  <COMPOUND>
O=C(Nc1ccccc1-c1ccccc1)c1cccc2ccccc12

>  <T/C>
94 % of control

$$$$
>  <COMPOUND>
Cc1ccc2ccccc2[n+]1CC(=O)c1ccc2c(c1)OCO2

>  <T/C>
105 % of control

$$$$
>  <COMPOUND>
C=C(C)C1(C(=O)OCC(Cl)(Cl)Cl)NC(=O)C(NC(=O)COc2ccccc2)=CO1 (configuration not stated)

>  <T/C>
88 % of control

$$$$
>  <COMPOUND>
CCCC(=O)C#C[Si](C)(C)C

>  <T/C>
103 % of control

$$$$
>  <COMPOUND>
Cc1ccc(S(=O)(=O)N/N=C/c2cccc([N+](=O)[O-])c2O)cc1

>  <T/C>
104 % of control

$$$$
>  <COMPOUND>
O=c1cc(-c2ccccc2)c(N=Nc2ccccc2)c(S)n1-c1ccccc1

>  <T/C>
88 % of control

$$$$
>  <COMPOUND>
O=C1CSC(c2cc(O)ccc2O)N1c1nncs1 (configuration not stated)

>  <T/C>
97 % of control

$$$$
>  <COMPOUND>
Cc1onc(-c2c(Cl)cccc2Cl)c1C(=O)SC1=NC(C)N2C(SC(=O)c3c(-c4c(Cl)cccc4Cl)noc3C)=NC(C)N12 (configuration not stated)

>  <T/C>
87 % of control

$$$$
>  <COMPOUND>
COC(=O)C(CC(C)C)NC(=O)C(Cc1cnc[nH]1)NC(=O)C(CS)N(C(=O)OCc1ccccc1)C(=O)OCc1ccccc1 (configuration not stated)

>  <T/C>
98 % of control

$$$$
>  <COMPOUND>
NS(=O)(=O)c1ccc(Nc2c3ccc(Cl)cc3nc3ncccc23)cc1

>  <T/C>
101 % of control

$$$$
>  <COMPOUND>
Cc1cc(=O)c2cc3ccc4c5[nH]c(C)cc(=O)c5cc5ccc(c2[nH]1)c3c54

>  <T/C>
106 % of control

$$$$
>  <COMPOUND>
Cc1cc(C)nc(NS(=O)(=O)c2ccc(N=c3c4ccccc4n(Cc4ccccc4)c4ccccc34)cc2)n1

>  <T/C>
88 % of control

$$$$
>  <COMPOUND>
Cc1ccc(S(=O)(=O)N=Nc2c(O)[nH]c3c(Cl)cc(Cl)cc23)cc1

>  <T/C>
100 % of control

$$$$
>  <COMPOUND>
CC(=O)c1c(OCC(O)CN(CCO)CCO)ccc2c(C)cc(=O)oc12 (configuration not stated)

>  <T/C>
104 % of control

$$$$
>  <COMPOUND>
CC(=O)N(O)c1ccc2c(c1)Cc1cc(F)ccc1-2

>  <T/C>
120 % of control

$$$$
>  <COMPOUND>
C=Cc1ccccc1NC(C(=O)O)c1ccccc1 (configuration not stated)

>  <T/C>
106 % of control

$$$$
>  <COMPOUND>
NC(=O)c1[nH]ccc1NCc1ccccc1

>  <T/C>
88 % of control

$$$$

* * *

Recorded T/C for the following compounds
# System: P388 leukemia ip, CD2F1 mice, survival T/C
# PROCEDURE_DETAILS: NCI In Vivo Anticancer Drug Screen. Data for tumor model P388 Leukemia (intraperitoneal) in CD2F1 (CDF1) mice
# SETTINGS: endpoint: median survival time; dose: 50.0 mg/kg/injection; schedule: Q04DX003 (ip); vehicle: Klucel (hydroxypropylcellulose) (HPC); higher = longer survival
Inconclusive results and toxic doses are left out.
ASSAY_ENDPOINT: T/C

>  <COMPOUND>
S=c1[nH]nc(-c2cnns2)o1

>  <OBSERVED_RESULT>
103 % of control

$$$$
>  <COMPOUND>
CC12CCC3C(CCC4CC5OC(=O)CC5CC43C)C1CCC2=O (stereo not given)

>  <OBSERVED_RESULT>
102 % of control

$$$$
>  <COMPOUND>
Cc1cc(C)nc(N/N=C\c2c(Cl)cccc2Cl)n1

>  <OBSERVED_RESULT>
100 % of control

$$$$
>  <COMPOUND>
[Cu+2].c1nn[nH]n1

>  <OBSERVED_RESULT>
95 % of control

$$$$
>  <COMPOUND>
COc1cc(/C=C/C2=C(C)C(=O)CC(c3cc(OC)cc(OC)c3)C2C)cc(OC)c1 (stereo not given)

>  <OBSERVED_RESULT>
95 % of control

$$$$

* * *

Recorded T/C for the following molecules
# Tested on: P388 leukemia ip, CD2F1 mice, survival T/C
# PROCEDURE_DETAILS: NCI In Vivo Anticancer Drug Screen. Data for tumor model P388 Leukemia (intraperitoneal) in CD2F1 (CDF1) mice
# SETTINGS: endpoint: median survival time; dose: 30.0 mg/kg/injection; schedule: Q01DX005 (ip); vehicle: saline with Tween-80; higher = longer survival
# Method: The antitumor activity of compounds was measured in mice bearing transplantable tumors. Survival or tumor size were measured and the results are expressed as the measurement made in the treated group (T) divided by the measurement made in the vehicle treated control group (C). The tumor model used in this assay is P388 Leukemia (intraperitoneal) in CD2F1 (CDF1) mice
Toxic doses and inconclusive results are not listed.
ASSAY_ENDPOINT: T/C

>  <MOLECULE>
O=C(O)c1cc(Br)cc(Br)c1O.O=C(O)c1cc(Br)cc(Br)c1O.[Cu]

>  <OBSERVED_RESULT>
94 % of control

$$$$
>  <MOLECULE>
CCOC(=O)C12CC(COc3ccc([N+](=O)[O-])cc3)ON1OC(COc1ccc([N+](=O)[O-])cc1)C2 (stereo unspecified)

>  <OBSERVED_RESULT>
90 % of control

$$$$
>  <MOLECULE>
c1csc(-c2ccn[nH]2)c1

>  <OBSERVED_RESULT>
100 % of control

$$$$
>  <MOLECULE>
COc1ccc(C(Cl)(c2ccccc2)c2ccc(C(C)=O)cc2)cc1 (stereo unspecified)

>  <OBSERVED_RESULT>
101 % of control

$$$$
>  <MOLECULE>
NC(=O)c1ccccc1OC(=O)Nc1ccc(F)cc1

>  <OBSERVED_RESULT>
97 % of control

$$$$
>  <MOLECULE>
CC1(COc2ccccc2OCC2(C)CO2)CO1 (stereo unspecified)

>  <OBSERVED_RESULT>
100 % of control

$$$$

* * *

# Test system: P388 leukemia ip, CD2F1 mice, survival T/C
# PROCEDURE_DETAILS: NCI In Vivo Anticancer Drug Screen. Data for tumor model P388 Leukemia (intraperitoneal) in CD2F1 (CDF1) mice
# SETTINGS: endpoint: median survival time; dose: 50.0 mg/kg/injection; schedule: Q01DX005 (ip); vehicle: Klucel (hydroxypropylcellulose) (HPC); higher = longer survival
Toxic doses and inconclusive results are not listed. Peptide text beside a SMILES is read from it.

>  <COMPOUND>
NC(CCC(=O)O)C(=O)NC(Cc1ccc(O)cc1)C(=O)NC(CCC(=O)O)C(=O)O (stereo not drawn) (H-Glu-Tyr-Glu-OH; configuration not given here)

>  <T/C>
93 % of control

$$$$
>  <COMPOUND>
Cc1ccc(C)c2c1C(=O)c1ccccc1C2(O)C#Cc1ccccc1 (stereo unspecified)

>  <T/C>
101 % of control

$$$$
>  <COMPOUND>
NC(=S)c1cccc(OCCCOc2ccccc2)c1

>  <T/C>
96 % of control

$$$$
>  <COMPOUND>
CCOC(=O)c1nc2nc3cc(OC)c(OC)cc3cc2c(=O)[nH]1

>  <T/C>
87 % of control

$$$$
>  <COMPOUND>
O=c1[nH]c(-c2ccc(Cl)cc2)nc2sc3c(c12)CCCC3

>  <T/C>
86 % of control

$$$$
>  <COMPOUND>
CCOC(=O)c1cccc(N)c1C(=O)OCCN(CC)CC

>  <T/C>
93 % of control

$$$$
>  <COMPOUND>
C=CCOc1cc2c(cc1C(CC)c1ccc(OC)cc1)OCO2 (stereo unspecified)

>  <T/C>
101 % of control

$$$$
>  <COMPOUND>
Cc1cc(N/N=C/c2ccc(Br)cc2)c2cc3c(cc2n1)OCO3

>  <T/C>
94 % of control

$$$$
>  <COMPOUND>
CCOC(=O)C1C[S][Sn]2([NH]1)[NH]C(C(=O)OCC)C[S]2 (stereo unspecified)

>  <T/C>
99 % of control

$$$$
>  <COMPOUND>
COc1cc(C(N)CCc2ccc3c(c2)OCO3)cc(OC)c1OC (stereo unspecified)

>  <T/C>
110 % of control

$$$$
>  <COMPOUND>
O=C1OC(=O)C2CC3C(CC12)C1(Cl)C(Cl)=C(Cl)C3(Cl)C1(Cl)Cl (stereo unspecified)

>  <T/C>
104 % of control

$$$$
